- TEST SUMMARY: cytotoxicity in PAX8-dependent RMG-1 cells, dose response, cell-based, cherry-pick (AID 687029);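 further: cells exposed to compound for 96 hours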
- MEASUREMENT CONDITIONS: RMG-1 viability, CellTiterGlo ATP luminescence, 96 h; series mostly up to 35 µM
Measured potencies and affinities stand elsewhere. Active and inactive are the calls of the source.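 How the source made its calls: active means signal drop whose fitted half-maximal concentration is at most twice the top valid dose, in every test run; inconclusive means mixed calls across runs, poor fit, or flat 30 to 70% inhibition; inactive means wrong direction, flat within 30%, or potency beyond limit.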
RECORDED METRIC: activity change, negative = inhibition

Examples from the recorded data:
O=C(O)c1ccc(N/N=C/c2ccc3nccnc3c2)cc1 | inactive
O=C(NC1=CC(=O)c2ccccc2C1=O)c1ccccc1 | inactive
COc1ccc(NC(=O)Nc2ccc3c(c2)CC(=O)N([C@@H](C)CO)C[C@@H](C)[C@@H](CN(C)Cc2ccc(Oc4ccccc4)cc2)O3)cc1 | inactive
O=C(Nc1ccccc1)N1CCCCN2[C@H](CO)[C@H](c3ccc(C#Cc4ccccc4)cc3)[C@H]2C1 | inactive
C[C@@H]1CN([C@@H](C)CO)S(=O)(=O)c2ccc(C#C[C@@H](C)O)cc2O[C@H]1CN(C)Cc1ccc(-c2ccccc2)cc1 | inactive
C[C@H](CO)N1C[C@H](C)[C@@H](CN(C)Cc2ccc(C(F)(F)F)cc2)OCCCC[C@H](C)Oc2ccc(NS(=O)(=O)c3ccc(F)cc3)cc2C1=O | inactive
CCCCCC(CC(=O)NO)C(=O)NC(C(=O)N1CCCC1CO)C(C)C (stereo unspecified) | inactive
COc1ccc(S(=O)(=O)N2CCCCN3[C@H](CO)[C@H](c4ccc(C#CC(C)C)cc4)[C@H]3C2)cc1 | inactive

Now, please, on to the next compound.
Q: Fill in reported activity change, negative = inhibition for this entry: `C[C@@H]1CCCCO[C@H](CN(C)Cc2ccccc2)[C@H](C)CN([C@@H](C)CO)C(=O)c2cc(NC(=O)Nc3ccc(C(F)(F)F)cc3)ccc2O1`
A: inactive

###

- TARGET SYSTEM: Torsin-1A (Homo sapiens) (UniProt O14656)
- Sequence (O14656 whole entry, looked up): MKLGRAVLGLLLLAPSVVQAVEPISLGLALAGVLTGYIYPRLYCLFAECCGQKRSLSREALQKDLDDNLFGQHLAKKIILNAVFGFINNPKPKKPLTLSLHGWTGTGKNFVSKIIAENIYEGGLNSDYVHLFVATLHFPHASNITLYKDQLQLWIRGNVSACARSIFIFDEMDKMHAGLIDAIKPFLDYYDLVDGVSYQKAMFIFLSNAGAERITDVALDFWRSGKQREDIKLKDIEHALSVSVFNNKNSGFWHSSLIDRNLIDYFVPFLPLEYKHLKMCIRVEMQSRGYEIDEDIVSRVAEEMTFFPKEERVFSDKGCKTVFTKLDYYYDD
- TEST SUMMARY: torsin A binders from cell lysate, primary screen, small-molecule microarray, wild-type, 635/667 nm (AID 1149)
- MEASUREMENT CONDITIONS: COS7 hTOR1A-WT lysate, 635 nm fluorescence, higher = more signal
Answer label 0 if composite z-score is under 0.6, and label 1 if it is 0.6 or more.

COCCOC(=O)N1C(=O)[C@@]2(c3ccccc31)[C@H](C(=O)Nc1nc3ccccc3s1)[C@H]1C(=O)O[C@H](c3ccccc3)[C@H](c3ccccc3)N1[C@@H]2c1ccc(O)cc1 | label 1
CO[C@H]1O[C@H](CO)[C@@H](OC(=O)Nc2ccccc2)[C@H](OC(=O)Nc2ccc3c(c2)OCO3)[C@H]1OC(=O)Nc1ccc2c(c1)OCO2 | label 0
O=C1O[C@H](c2ccccc2)[C@H](c2ccccc2)N2[C@H]1[C@@H](C(=O)Nc1nc3ccccc3s1)[C@]1(C(=O)Nc3ccc(C#CCCO)cc31)[C@H]2c1ccccc1OCCO | label 1

Q: Check this compound for composite z-score at or above 0.6: `COc1ccc(C(=O)Nc2cccc(CN3C(=O)[C@@]4(O[C@@H](CCO)[C@H]([Si](C)(C)c5ccc(OC)cc5)[C@H]4C)c4ccccc43)c2)cc1`
A: label 0

Q: Check this compound for composite z-score at or above 0.6: `COC(=O)c1c(CC[C@@H](CO)NC(=O)Nc2ccc(OC)cc2)oc(C(=O)Cc2ccccc2)c1C(=O)OC`
A: label 0

Q: Check this compound for composite z-score at or above 0.6: `C[N+](C)(C)CCCC[C@@H]1NC(=O)[C@H]2C[C@@H](C(=O)NCCCCCN)[C@@H](c3cccc(OCCO)c3)N2C1=O`
A: label 1

Q: Check this compound for composite z-score at or above 0.6: `COc1ccc([Si](C)(C)[C@H]2[C@H](CCO)O[C@@]3(C(=O)N(Cc4ccc(N5C(=O)c6cccc7cccc5c67)cc4)c4ccccc43)[C@@H]2C)cc1`
A: label 0

Q: Check this compound for composite z-score at or above 0.6: `Cc1ccc(S[C@]2(C(=O)NCC(C)C)CC(=O)N(C(C)C)[C@@H]2c2ccc(CO)cc2)cc1`
A: label 0

Q: Check this compound for composite z-score at or above 0.6: `COCCOC(=O)N1C(=O)[C@@]2(c3cc(C#CC4(O)CCCCCC4)ccc31)[C@H](C(=O)NC[C@H](O)c1ccccc1)[C@H]1C(=O)O[C@H](c3ccccc3)[C@H](c3ccccc3)N1[C@@H]2c1ccccc1OCCO`
A: label 1

Q: Check this compound for composite z-score at or above 0.6: NC(=O)N1C(=O)C2C(C1=O)C1C=C(c3ccc(CO)cc3)C2C(C2CC2)N1Cc1cc2c(cc1Br)OCO2 (stereo not drawn)
A: label 0

Q: Check this compound for composite z-score at or above 0.6: `O=C1c2ccccc2[C@@]2(Cc3ccccc3N(CC(F)(F)F)C2=O)[C@H](c2ccc(CO)cc2)N1Cc1ccccc1C(F)(F)F`
A: label 0

###

Recorded composite z-score for the following compounds
- TEST SUMMARY: small-molecule microarray binders of probe aEGFR, primary screen, biochemical, biotinylated probe, 635/667 nm fluorescence (AID 1097);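 further: probe is a biotinylated anti-EGFR antibody binding compounds printed on slides; score combines fluorescence near 667 nm and signal to noise of each spot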
- MEASUREMENT CONDITIONS: higher = more signal
// return a plain number; no unit text

Examples from the recorded data:
C=CC[C@@H](OC(=O)Nc1ccc(SC)cc1)c1ccc(OCCO)cc1 | -0.204
C=C(COC)/C(=C/C[C@H](OC(C)=O)c1cccc(OCCO)c1)c1cc(C(=O)OC)ccc1OC | -0.151
CC(C)(C)OC(=O)CC[C@@]12N=C(c3ccc(OCCCO)cc3)O[C@@H]1c1ccccc1N(Cc1ccccc1)C2=O | -0.0497
CCCCCCC#C[Si](O[C@H](c1ccccc1)c1cn(Cc2ccccc2)nn1)(C(C)C)C(C)C | 0.0334
C=C(COC)C(=O)CC[C@H](OC(=O)c1cccnc1)c1cccc(OCCO)c1 | 0.431

Q: Fill in reported composite z-score for this entry: `NC(=O)NCC#Cc1ccc2c(c1)[C@]1(C(=O)N2)[C@H](c2ccc(OCCO)cc2)N2[C@H](c3ccccc3)[C@H](c3ccccc3)OC(=O)[C@H]2[C@@H]1C(=O)Nc1nc2ccccc2s1`
A: -0.0946

Q: Fill in reported composite z-score for this entry: `COc1ccc([Si](C)(C)[C@@H]2[C@@H](CC(=O)N3CCC[C@H]3CO)O[C@]3(C(=O)N(Cc4ccc(I)cc4)c4ccccc43)[C@H]2C)cc1`
A: 0.0152

Q: Fill in reported composite z-score for this entry: `CCCCC(=C=CC[C@@H](O)c1ccc(OCCO)cc1)C[C@@H](O)c1cc(Cl)cc(Cl)c1O`
A: 0.24

Q: Fill in reported composite z-score for this entry: `CC(C)C(=C=CC[C@@H](O)c1ccc(CO)o1)CCO`
A: -0.191

Q: Fill in reported composite z-score for this entry: CN1C=C(C(=O)OCCS(C)(=O)=O)C(C(=O)OCCS(C)(=O)=O)=CC(CCCO)=CC1c1cccs1 (stereo unspecified)
A: -0.0659

###

Recorded z-score for the following molecules
- TEST SUMMARY: E. coli acrAB mutant growth effects, primary screen, E. coli filamentation inducers, strain DRC39, OD650, 24 h (AID 1178);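 further: growth measured as culture turbidity by optical density at 650 nm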
- MEASUREMENT CONDITIONS: higher = more signal, called active from +8 up or from −8 down
Active and inactive are the calls of the source.

Examples from the recorded data:
Cc1ccc(S[C@]2(C(=O)NCC(C)C)CC(=O)N(C(C)C)[C@@H]2c2ccc(CO)cc2)cc1 | 1.49 (inactive)
CCCCCN1CC=CC23O[C@@H]4/C=C\CCC(C)OC(=O)C4[C@H]2C(=O)N(CCCO)[C@@H]3C1=O (stereo partly specified) | 1.54 (inactive)
C[N+](C)(C)CCCC[C@@H]1NC(=O)[C@@H]2C[C@H](C(=O)NCCCCCNC(=O)CS)[C@H](c3ccc(O)cc3)N2C1=O | 0.513 (inactive)
C=CCNC(=O)[C@@H]1[C@H]2C(=O)O[C@H](c3ccccc3)[C@H](c3ccccc3)N2[C@H](c2ccc(O)cc2)[C@@]12C(=O)Nc1ccccc12 | 0.874 (inactive)
COCCOC(=O)N1C(=O)[C@@]2(c3cc(C#CCNC(N)=O)ccc31)[C@H](c1ccccc1OCCO)N1[C@H](c3ccccc3)[C@H](c3ccccc3)OC(=O)[C@H]1[C@@H]2C(=O)Nc1nc2ccccc2s1 | -0.17 (inactive)

Now, please, on to the next molecule.
Q: Fill in reported z-score for this entry: `Cc1ccc(N2C(=O)c3ccccc3[C@](C)(C(=O)NC3CC3)[C@@H]2c2ccc(CO)cc2)nc1`
A: 0.256 (inactive)

###

- TEST SUMMARY: cytotoxicity in OVCAR8 ovarian cancer cells, dose response, PAX8 project, cell-based, plate reader, dry powder samples (AID 743197)
- MEASUREMENT CONDITIONS: series mostly up to 35 µM
Results with a measured potency or affinity are listed apart. Active and inactive are the calls of the source. How the calls were made is not given here.
RECORDED METRIC: outcome

Examples from the recorded data:
COc1cccc(S(=O)(=O)Nc2ccc3c(c2)[C@@H]2C[C@@H](CC(=O)NCc4ccc(Cl)cc4)O[C@@H](CO)[C@@H]2O3)c1 | inactive
C[C@@H]1CN([C@@H](C)CO)C(=O)c2cc(NS(=O)(=O)c3ccc(Cl)cc3)ccc2O[C@@H](C)CCCCO[C@H]1CN(C)C | inactive
COc1ccc(S(=O)(=O)N(C)C[C@H]2Oc3c(NC(=O)Nc4ccc(C(F)(F)F)cc4)cccc3C(=O)N([C@@H](C)CO)C[C@H]2C)cc1 | inactive
C[C@@H]1CCCCO[C@@H](CN(C)Cc2ccc(Cl)c(Cl)c2)[C@H](C)CN([C@@H](C)CO)C(=O)c2cc(NC(=O)Nc3ccccc3)ccc2O1 | inactive
C[C@H]1CN([C@@H](C)CO)S(=O)(=O)c2ccc(C#Cc3ccc(F)cc3)cc2O[C@H]1CN(C)C(=O)NC1CCCCC1 | inactive
COc1cccc(-c2ccc3c(c2)[C@@H]2[C@@H](CCN2S(=O)(=O)c2ccccc2C)[C@H](CO)N3C)c1 | inactive
C[C@H](CO)N1C[C@H](C)[C@@H](CN(C)Cc2ccc(Cl)c(Cl)c2)OCCCC[C@H](C)Oc2ccc(NS(=O)(=O)c3ccccc3)cc2C1=O | inactive
C[C@@H]1CN([C@H](C)CO)C(=O)Cc2cc(NS(=O)(=O)c3ccccc3)ccc2O[C@@H]1CN(C)S(=O)(=O)c1ccc(Cl)cc1 | inactive

Q: Fill in reported outcome for this entry: `C[C@@H]1CN([C@@H](C)CO)C(=O)Cc2cc(NC(=O)CCC(F)(F)F)ccc2O[C@H]1CN(C)Cc1ccc(-c2ccccc2)cc1`
A: inactive

Q: Fill in reported outcome for this entry: `C[C@H](O)C#Cc1cnc2c(c1)C(=O)N([C@H](C)CO)C[C@@H](C)[C@@H](CN(C)Cc1ccc(-c3ccccc3)cc1)O2`
A: inactive

Q: Fill in reported outcome for this entry: `C[C@@H]1CCCCO[C@H](CN(C)C(=O)Nc2ccc(C(F)(F)F)cc2)[C@@H](C)CN([C@@H](C)CO)C(=O)c2cc(NS(=O)(=O)c3cccs3)ccc2O1`
A: inactive

Q: Fill in reported outcome for this entry: `O=C(Nc1cccc(F)c1)N[C@@H]1CC[C@@H](CCNS(=O)(=O)c2cccc(Cl)c2)O[C@@H]1CO`
A: inactive

Q: Fill in reported outcome for this entry: `C[C@H](CO)N1C[C@H](C)[C@@H](CN(C)S(=O)(=O)c2ccc(Cl)cc2)OCCCC[C@H](C)Oc2ccc(NS(=O)(=O)c3ccc(F)cc3)cc2C1=O`
A: inactive

Q: Fill in reported outcome for this entry: `C[C@H]1CN([C@@H](C)CO)C(=O)c2c(c3ccccc3n2C)-c2ccccc2CO[C@@H]1CN(C)S(=O)(=O)c1ccsc1`
A: inactive
